# METHOD DESCRIPTION: nuclear p53 accumulation, HPV+ cells – imaging, p53-positive nuclei imaging, 24 h, 48 h (AID 1508601)
# CONDITION DESCRIPTION: 24/48 h, measured here: cell number at 48 h, Library stock concentration: 370 uM
In all, about 5,700 compounds went through this assay and about 85 (1%) were called active. For the sample, actives were picked, then their nearest neighbours and some compounds at random.
Please respond with reported nuclei count, normalised for every item in the list.
One number for each entry, in %.

Examples with their reported nuclei count, normalised follow.
1) CC(=O)NC(CSC(=S)NSc1ccc(SNC(=S)SCC(NC(C)=O)C(=O)O)cc1)C(=O)O (configuration not stated) | 106
2) OC(c1cc(C(F)(F)F)nc2c(C(F)(F)F)cccc12)[C@H]1CCCCN1 (some centres not stated) | 110
3) CN(C)CCC(CSc1ccccc1)Nc1ccc(S(=O)(=O)NC(=O)c2ccc(N3CCN(Cc4ccccc4-c4ccc(Cl)cc4)CC3)cc2)cc1[N+](=O)[O-] (configuration not stated) | 113
4) Nc1ccn(C2OC(CO)C(O)C2F)c(=O)n1 (configuration not stated) | 44.4
5) CCCCCCCCCCCCCC=CC(O)C(CO)N(C)C (configuration not stated) | 116
6) Nc1ccn(C2C=C(CO)C(O)C2O)c(=O)n1 (configuration not stated) | 54.3

Lab note: each compound below needs its nuclei count, normalised filled in.
1. CN(NC(=O)CC(=O)NN(C)C(=S)c1ccccc1)C(=S)c1ccccc1
2. C=C1C(=O)OC(CCCCCCCC)C1C(=O)O (configuration not stated)
3. COC(=O)C#Cc1ccc([N+](=O)[O-])cc1
4. COc1ccc(N2C(=O)C(=Cc3ccc([N+](=O)[O-])s3)SC2=S)cc1
5. N#CSc1cc(SC#N)c(N)nc1N
6. CC(=O)OC1C(=O)[C@]2(C)C(O)CC3OC[C@@]3(OC(C)=O)C2C(OC(=O)c2ccccc2)[C@]2(O)CC(OC(=O)C(O)C(NC(=O)c3ccccc3)c3ccccc3)C(C)=C1C2(C)C (some centres not stated)

Resp:
1: 55; 2: 116; 3: 117; 4: 59.1; 5: 74.3; 6: 26.7
